- targetDesc: human NTCP (Homo sapiens)
- assayExplanation: Screening fluorescent competitive Myrcludex B-FITC binding assay (96-well, 10 µM drug)
- assayConditions: Prestwick library screen, 10 µM drug; B-score of Myrcludex B-FITC binding
Where a name gives a salt, the structure may show the parent alone.
Threshold rule: B-score binding assay greater than or equal to 1 is T; below that, F.

- molecule: "COc1cc(NC(C)CCCN)c2ncccc2c1 (stereo not drawn) [Primaquine diphosphate]"
  labelValue: "F"
- molecule: "NC[C@@H]1O[C@H](O[C@H]2[C@@H](O)[C@H](O[C@@H]3[C@@H](O)[C@H](N)C[C@H](N)[C@H]3O[C@H]3O[C@H](CO)[C@@H](O)[C@H](O)[C@H]3N)O[C@@H]2CO)[C@H](N)[C@@H](O)[C@@H]1O [Paromomycin sulfate]"
  labelValue: "T"
- molecule: "Cn1cnc([N+](=O)[O-])c1Sc1ncnc2nc[nH]c12"
  labelValue: "T"
- molecule: "CC(=O)OCC(=O)[C@H]1CC[C@H]2[C@@H]3CC[C@H]4C[C@H](O)CC[C@]4(C)[C@H]3C(=O)C[C@]12C [Alfadolone acetate]"
  labelValue: "T"
- molecule: "O=C(CCNNC(=O)c1ccncc1)NCc1ccccc1 [Nialamide]"
  labelValue: "F"
- molecule: "COC(=O)CCc1ccc(OCC(O)CNC(C)C)cc1 (stereo not drawn) [Esmolol hydrochloride]"
  labelValue: "T"

# check: B-score binding assay of CC[C@H]1OC(=O)C[C@@H](O)[C@H](C)[C@@H](O[C@@H]2O[C@H](C)[C@@H](O[C@H]3C[C@@](C)(O)[C@@H](O)[C@H](C)O3)[C@H](N(C)C)[C@H]2O)[C@@H](CC=O)C[C@@H](C)C(=O)/C=C/C(C)=C/[C@@H]1CO[C@@H]1O[C@H](C)[C@@H](O)[C@@H](OC)[C@H]1OC is greater than or equal to 1
T

# check: B-score binding assay of CN(c1nccc(=O)[nH]1)C1CCN(c2nc3ccccc3n2Cc2ccc(F)cc2)CC1 is greater than or equal to 1
F

# check: B-score binding assay of Cc1ncc(CO)c(CO)c1O [Pyridoxine hydrochloride] is greater than or equal to 1
T

---

Recorded B-score functional assay for the following compounds
- targetDesc: human NTCP (Homo sapiens)
- assayExplanation: Screening taurocholate uptake assay (96-well, [14C]taurocholate, 10 µM drug)
- assayConditions: screening taurocholate uptake, 10 µM drug
Structures can show the parent of a compound that is named as a salt.
Lab note: jot down the number only; don't add units.

- compound: "COc1ccc(OC)c(C(O)C(C)N)c1 (stereo not drawn) [Methoxamine hydrochloride]"
  B-score functional assay: -0.662

Could you tell me which B-score functional assay is on file for CC(=O)OCC(=O)[C@@]12OC(C)(C)O[C@@H]1C[C@H]1[C@@H]3C[C@H](F)C4=CC(=O)C=C[C@]4(C)[C@@]3(F)[C@@H](O)C[C@@]12C [Fluocinonide] ?
0.319

Could you tell me which B-score functional assay is on file for CC[N+](C)(CC)CCOC(=O)C1c2ccccc2Oc2ccccc21 [Methantheline bromide] ?
-0.025

---

- targetDesc: human NTCP (Homo sapiens, UniProt Q14973)
- Sequence (Q14973 1-349): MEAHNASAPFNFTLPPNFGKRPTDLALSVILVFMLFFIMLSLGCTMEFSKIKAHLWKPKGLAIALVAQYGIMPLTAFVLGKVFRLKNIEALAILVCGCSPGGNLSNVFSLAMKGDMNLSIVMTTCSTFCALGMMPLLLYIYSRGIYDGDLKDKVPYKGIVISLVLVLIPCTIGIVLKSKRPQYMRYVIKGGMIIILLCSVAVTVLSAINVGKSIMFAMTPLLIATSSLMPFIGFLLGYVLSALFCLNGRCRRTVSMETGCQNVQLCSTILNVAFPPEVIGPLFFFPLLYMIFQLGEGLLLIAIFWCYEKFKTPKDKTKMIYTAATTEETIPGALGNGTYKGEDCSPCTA
- assayExplanation: Screening fluorescent competitive Myrcludex B-FITC binding assay (96-well, 10 µM drug)
- assayConditions: Prestwick library screen, 10 µM drug; B-score of Myrcludex B-FITC binding
Structures can show the parent of a compound that is named as a salt.
measuredAttribute: B-score binding assay
Lab note: jot down the number only; don't add units.

- compound: "CCN1C(=O)NC(c2ccccc2)C1=O (centres unmarked)"
  B-score binding assay: 0.936
- compound: "NS(=O)(=O)c1cc(Cl)c(Cl)c(S(N)(=O)=O)c1 [Dichlorphenamide]"
  B-score binding assay: 2.215
- compound: "CS(=O)(=O)O.OC(CCN1CCCCC1)(c1ccccc1)c1ccccc1 [Pridinol methanesulfonate salt]"
  B-score binding assay: 0.059
- compound: "CCN(CC)CCNC(=O)c1cc(Br)c(N)cc1OC [Bromopride]"
  B-score binding assay: 1.459
- compound: "C[C@@]1(O)CCOC(=O)C1"
  B-score binding assay: 0.161
- compound: "CC(=O)c1ccc(S(=O)(=O)NC(=O)NC2CCCCC2)cc1 [Acetohexamide]"
  B-score binding assay: 1.192
- compound: "Cc1cccc(C)c1NC(=O)C(C)N (centres unmarked) [Tocainide hydrochloride]"
  B-score binding assay: 0.83

Could you tell me which B-score binding assay is on file for CCCCNc1ccc(C(=O)OCCN(C)C)cc1.Cl [Tetracaïne hydrochloride] ?
2.591

---

- targetDesc: human NTCP (Homo sapiens)
- Sequence (Q14973 1-349): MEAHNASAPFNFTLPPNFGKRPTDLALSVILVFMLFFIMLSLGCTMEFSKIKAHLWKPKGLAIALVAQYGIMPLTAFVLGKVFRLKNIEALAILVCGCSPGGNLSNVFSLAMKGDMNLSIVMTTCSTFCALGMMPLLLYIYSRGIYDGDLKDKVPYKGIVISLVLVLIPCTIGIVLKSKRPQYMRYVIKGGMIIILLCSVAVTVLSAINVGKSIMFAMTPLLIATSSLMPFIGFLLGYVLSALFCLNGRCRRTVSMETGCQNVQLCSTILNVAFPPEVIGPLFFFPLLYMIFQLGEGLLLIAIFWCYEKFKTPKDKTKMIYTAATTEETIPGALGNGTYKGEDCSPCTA
- assayExplanation: Screening taurocholate uptake assay (96-well, [14C]taurocholate, 10 µM drug)
- assayConditions: screen, 10 µM drug, taurocholate uptake
measuredAttribute: B-score functional assay

- compound: "CC(C)(C)NC(=O)[C@H]1CC[C@H]2[C@@H]3CC[C@H]4NC(=O)C=C[C@]4(C)[C@H]3CC[C@]12C [Finasteride]"
  B-score functional assay: -1.623
- compound: "COc1ccc2cc([C@H](C)C(=O)O)ccc2c1"
  B-score functional assay: -0.433

Could you tell me which B-score functional assay is on file for CCCCC1C(=O)N(c2ccccc2)N(c2ccccc2)C1=O ?
0.138

Could you tell me which B-score functional assay is on file for COc1c2occc2c(OC)c2c(=O)cc(C)oc12 ?
0.111

---

Recorded Ranking score for the following compounds
- targetDesc: human NTCP (Homo sapiens)
- Sequence (Q14973 1-349): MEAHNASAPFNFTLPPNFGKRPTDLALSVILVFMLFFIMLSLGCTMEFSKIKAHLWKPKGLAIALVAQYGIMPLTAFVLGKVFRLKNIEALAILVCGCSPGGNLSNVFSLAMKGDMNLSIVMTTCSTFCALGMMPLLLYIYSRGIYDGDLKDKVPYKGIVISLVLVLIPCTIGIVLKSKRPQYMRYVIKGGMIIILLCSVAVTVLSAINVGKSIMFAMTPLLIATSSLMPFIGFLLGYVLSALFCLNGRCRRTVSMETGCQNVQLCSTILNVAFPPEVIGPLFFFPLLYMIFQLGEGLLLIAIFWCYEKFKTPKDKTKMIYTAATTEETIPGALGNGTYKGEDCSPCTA
- assayExplanation: Screening taurocholate uptake assay (96-well, [14C]taurocholate, 10 µM drug)
- assayConditions: ranking over the functional and the binding screening assay
Lab note: jot down the number only; don't add units.

Could you tell me which Ranking score is on file for C=C(NC(=O)C(=C)NC(=O)c1csc(C2=N[C@@H]3c4csc(n4)[C@H]4NC(=O)c5csc(n5)[C@H]([C@](C)(O)[C@@H](C)O)NC(=O)[C@H]5CSC(=N5)/C(=C/C)NC(=O)[C@H]([C@@H](C)O)NC(=O)c5csc(n5)[C@]3(CC2)NC(=O)[C@H](C)NC(=O)C(=C)NC(=O)[C@H](C)NC(=O)[C@H]([C@@H](C)CC)N[C@@H]2C=Cc3c([C@H](C)O)cc(nc3[C@H]2O)C(=O)O[C@@H]4C)n1)C(N)=O ?
23.8747

Could you tell me which Ranking score is on file for CCOc1cc(CC(=O)N[C@@H](CC(C)C)c2ccccc2N2CCCCC2)ccc1C(=O)O [Repaglinide] ?
233.103

Could you tell me which Ranking score is on file for Cc1c(Cl)cccc1Nc1ccccc1C(=O)O ?
28.5657

---

Recorded B-score functional assay for the following compounds
- targetDesc: human NTCP (Homo sapiens, UniProt Q14973)
- assayExplanation: Screening taurocholate uptake assay (96-well, [14C]taurocholate, 10 µM drug)
- assayConditions: Prestwick library screen, taurocholate uptake, 10 µM drug
Counter-ions that a name gives are not always drawn.
Lab note: jot down the number only; don't add units.

These solved cases illustrate the format of a correct answer.
- compound: "CC(c1cc2ccccc2s1)N(O)C(N)=O (stereo not drawn) [Zileuton]"
  targetDesc: "human NTCP (Homo sapiens, UniProt Q14973)"
  B-score functional assay: -0.271
- compound: "COc1ccccc1O [Guaiacol]"
  targetDesc: "human NTCP (Homo sapiens, UniProt Q14973)"
  B-score functional assay: -0.032

// next entry
Could you tell me which B-score functional assay is on file for COc1ccc(Cc2nccc3cc(OC)c(OC)cc23)cc1OC [Papaverine hydrochloride] ?
-0.09

Origin of the recorded values: paper PMC5681660
